Values from ChEMBL document CHEMBL1131087

test system: Rattus norvegicus; assay: Inhibition of paw swelling relative to the tebufelone in rat. Value was reported as Carrageenan paw edema index; format: functional
Property measured: CPE index
Give only the figure.

Study these solved cases before continuing.
Mol: CC(C)(C)c1cc(-c2cocn2)cc2c1OCC2(C)C
Property measured: CPE index
Result number: 0.19
//
Mol: CC(C)(C)c1cc(C(=O)c2nccs2)cc2c1OCC2(C)C
Property measured: CPE index
Result number: 0.75
//
Mol: CC(C)(C)c1cc(C=C2CCOC2=O)cc2c1OCC2(C)C
Property measured: CPE index
Result number: 0.93

# get_value(readout= CPE index, system= Rattus norvegicus) for `CCCN(C(=O)c1cc(C(C)(C)C)c2c(c1)C(C)(C)CO2)C1CC1`
1.41

----------
biological target: Prostaglandin G/H synthase 1 (Homo sapiens)
Sequence (P23219 whole entry): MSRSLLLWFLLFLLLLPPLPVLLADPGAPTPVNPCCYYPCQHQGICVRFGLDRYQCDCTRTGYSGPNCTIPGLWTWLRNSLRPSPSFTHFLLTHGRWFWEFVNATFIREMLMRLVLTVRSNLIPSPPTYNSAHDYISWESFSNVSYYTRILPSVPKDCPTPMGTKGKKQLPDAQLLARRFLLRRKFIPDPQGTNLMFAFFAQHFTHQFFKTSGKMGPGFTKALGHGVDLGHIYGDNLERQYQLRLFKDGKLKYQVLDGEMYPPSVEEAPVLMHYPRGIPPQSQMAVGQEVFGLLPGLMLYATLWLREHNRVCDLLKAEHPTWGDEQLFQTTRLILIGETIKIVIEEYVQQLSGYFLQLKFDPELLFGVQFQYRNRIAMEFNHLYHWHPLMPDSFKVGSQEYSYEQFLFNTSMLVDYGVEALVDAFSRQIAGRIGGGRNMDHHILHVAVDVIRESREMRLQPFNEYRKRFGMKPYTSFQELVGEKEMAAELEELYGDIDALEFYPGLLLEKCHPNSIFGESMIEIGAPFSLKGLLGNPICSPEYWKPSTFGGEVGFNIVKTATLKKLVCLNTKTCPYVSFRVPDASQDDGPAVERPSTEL
pIC50: −log10 of the molar value.
Please note: Yes applies when pIC50 is 6 or greater, and No applies otherwise.

Use the examples below as a reference point.
Mol: CCN(C)C(=O)c1cc(C(C)(C)C)c2c(c1)C(C)(C)CO2
Classification: No
--
Mol: CC(C)(C)c1cc(/C=C\c2cccs2)cc2c1OCC2(C)C
Classification: Yes
--
Mol: CC(C)(C)c1cc(-c2csc(N=C(N)N)n2)cc2c1OCC2(C)C
Classification: No
--
Mol: CC1(C)CC(c2cc(C(C)(C)C)c3c(c2)C(C)(C)CO3)=NO1
Classification: Yes

Can `CN(C(=O)c1cc(C(C)(C)C)c2c(c1)C(C)(C)CO2)C1CC1` be said to have pIC50 at or above 6?
No

----------
organism: Rattus norvegicus; test: Analgesic activity in phenylquinone-induced abdominal constriction assay (PAC); format: functional, Abdomen; design: concentration or dose not given beside the values
A collection of molecules and their measured Inhibition
# do not omit the unit; it follows the number

Mol: Cn1cccc1C(=O)c1cc(C(C)(C)C)c2c(c1)C(C)(C)CO2
Inhibition: 57%

Mol: CC(C)(C)c1cc(-c2csc(N=C(N)N)n2)cc2c1OCC2(C)C
Inhibition: 77%

Mol: CC(C)(C)c1cc(C(=O)N2CCSCC2)cc2c1OCC2(C)C
Inhibition: 29%

Mol: CC(C)(C)c1cc(C(=O)N2CCCCC2)cc2c1OCC2(C)C
Inhibition: 34%

Consider the molecule `CC(=O)Nc1cc(C(C)(C)C)c2c(c1)C(C)(C)CO2` and give its measured Inhibition.
22%

Which value of Inhibition has been reported for `CC(C)(C)c1cc(C(=O)NC2=NCCS2)cc2c1OCC2(C)C` in the records?
65%

----------
tested on: Rattus norvegicus; experiment: Inhibition of paw swelling relative to the tebufelone in rat. Value was reported as Carrageenan paw edema index; type: functional
Property measured: CPE index

These solved cases illustrate the format of a correct answer.
Mol: CC(C)(C)c1cc(/C=C\c2ccccn2)cc2c1OCC2(C)C
Result: 0.5

Mol: CN(C)C(=O)c1cc(C(C)(C)C)c2c(c1)C(C)(C)CO2
Result: 0.36

Which value of CPE index has been reported for `Cc1cc(/C=C\c2cc(C(C)(C)C)c3c(c2)C(C)(C)CO3)[nH]n1` in the records?
0.56

What CPE index value was documented for this compound, `CC(C)(C)c1cc(/C=C(/C(=O)O)c2cccs2)cc2c1OCC2(C)C` ?
0.76

----------
species: Rattus norvegicus; assay: Analgesic activity in phenylquinone-induced abdominal constriction assay (PAC); assay type: functional, Abdomen; design: concentration or dose not given beside the values
Property measured: Inhibition (%)
State just the number; it will be interpreted in %.

Field: example entries. Status: answers known.
Mol: CC(C)(C)c1cc(-c2cn3ccsc3n2)cc2c1OCC2(C)C
Result number: 68
//
Mol: CC1(C)CC(c2cc(C(C)(C)C)c3c(c2)C(C)(C)CO3)=NO1
Result number: 80
//
Mol: CC(C)NC(=O)c1cc(C(C)(C)C)c2c(c1)C(C)(C)CO2
Result number: 43

Reported Inhibition for `CC(C)(C)c1cc(/C=C\c2cccnc2)cc2c1OCC2(C)C` : what is it?
45

Which Inhibition value is on record for `CC(C)(C)c1cc(C(=O)c2nccs2)cc2c1OCC2(C)C` ?
28

I am curious: what Inhibition value has been reported for `COCCNC(=O)c1cc(C(C)(C)C)c2c(c1)C(C)(C)CO2` ?
84
